Experiment: soluble on expression in E. coli; label from the status in PepcDB or PDB records
property_label: soluble on expression in E. coli

Q. Sample MSSSANSIKVVARFRPQNRVEIESGGQPIVTFQGPDTCTVDSKEAQGSFTFDRVFDMSCKQSDIFDFSIKPTVDDILNGYNGTVFAYGQTGAGKSYTMMGTSIDDPDGRGVIPRIVEQIFTSILSSAANIEYTVRVSYMEIYMERIRDLLAPQNDNLPVHEEKNRGVYVKGLLEIYVSSVQEVYEVMRRGGNARAVAATNMNQESSRSHSIFVITITQKNVETGSAKSGQLFLVDLAGSEKVGKTGASGQTLEEAKKINKSLSALGMVINALTDGKSSHVPYRDSKLTRILQESLGGNSRTTLIINCSPSSYNDAETLSTLRFGMRAKSIKNKAKVNAELSPAELKQMLAKAKTQ — what was its soluble on expression in E. coli?
A. soluble

Q. Dear colleague, I am looking for the recorded soluble on expression in E. coli of the following sequence: MYIVVSTGDRAARIASKLPDCIIIDRDPDSAERLKEKGFNVLNGDASNPEILARFDMGEKIILADNDDFNIKVVKTAKLLGLDVYAVAADEDKCWLYEVEGVSKICGSVEALLSTIFRKNRYFEIQVEAEMEGKTL
A. not soluble

Q. Using the record for MQKESQTYKIAPAERLASVSEYYFSKKLKEVAQMNAEGKDVISLGIGSPDMPPSKVTIETLCNNAHDPNGHGYQPYVGIPELRKGFAAWYQRWYGVELNPNTEIQPLIGSKEGILHVTLAFVNPGEQVLVPNPGYPTYTSLSKILGAEVISYDLKEEDGWMPDFEALEKMDLNRVKLMWTNYPNMPTGANATPELYERLVDFARRKNIVIVNDNPYSFILNEKPISILSVPGAKECCIEFNSMSKSHNMPGWRIGMLASNAEFVQWILKVKSNIDSGMFRAMQLAAATALEAEADWYEGNNHNYRGRRHLAGEIMKTLGCTYDENQVGMFLWGKIPASCKDVEELTEKVLHQARVFITPGFIFGSNGARFIRISLCCKDAKLAEALERIKKLS , report its soluble on expression in E. coli.
A. not soluble

Q. Requested field: soluble on expression in E. coli. Item: MAEAVITLTEAAAFQIKDMMKEQEEEGAYLRVGVHGGGCSGLSYGMGFDHERRDDDIEFEQHGIKILVDRDSAPILRGTVIDYKQSLLGGGFTINNPNAIATCGCGSSFRTATNAGTPEQC
A. soluble

Others:
Q. Look up soluble on expression in E. coli for this sequence: MGSDKIHHHHHHMETIHFTKVHGSQNDFFLVDEEENHITEWSDEKRANFAIKLCDRKHSLGGADGILYVTKSSEVGPIGQMRVVNSDGSIASMCGNGLRTVARYLLEKHALTDAKVETMKAILDVKKATSLGFDIPTYQVEISPVKFAAETLPMHVGVEKLFNQVIPELDAELAFSAVSVPNPHLITFVDQAVLDSNKQEKLASYLNSENPYFPDGVNVSFVKRLSDDAIYVRTFERGVGFTNACGTAMSACSLIKKMLDNNILETPLNVYNDGGRVQVTAKKDAAGEISLQLIGNATFVSKGSVRYENDIVTELTNEATAEQAQYQALVKEVKEFLKTTE
A. not soluble

Q. Quick one: soluble on expression in E. coli of MVITLPKLKYALNALSPHISEETLNFHYNKHHAGYVNKLNTLIKDTPFAEKSLLDIVKESSGAIFNNAAQIWNHTFYWDSMGPDCGGEPHGEIKEKIQEDFGSFNNFKEQFSNILCGHFGSGWGWLALNNNNKLVILQTHDAGNPIKDNTGIPILTCDIWEHAYYIDYRNDRASYVKAWWNLVNWNFANENLKKAMQKLEHHHHHH ?
A. soluble
